Reference source: patent US12304917B1

experiment-summary: Solubility experiment (equilibrium solubility)
details: thermodynamic from solid
result-type: solubility (µM)

{"compound": "C=C[C@]1(C)C[C@@H](OC(=O)CSc2nc3cc[n+](Cc4ccc([N+](=O)[O-])cc4)cc3s2)[C@]2(C)[C@H](C)CC[C@]3(CCC(=O)[C@H]32)[C@@H](C)[C@@H]1O [Compound I-6]", "test-value": 887}
